Sourced from PubChem BioAssay AID1199

- Test system: mouse carcinogenicity bioassay, TD50 from CPDB
- protocol-summary: DSSTox (CPDBAS) Carcinogenic Potency Database Summary Mouse Bioassay Results
- test-context: TD50_Mouse_Note: TD50 is harmonic mean of more than one positive test; TargetSites_Mouse_Female: hematopoietic system; lung; myocardium
endpoint: Potency

The measured Potency associated with CC(C)CCC[C@@H](C)[C@H]1CC[C@H]2[C@@H]3CC=C4C[C@@H](OC(=O)Cc5ccc(N(CCCl)CCCl)cc5)CC[C@]4(C)[C@H]3CC[C@]12C reads 0.000955 mmol/kg/day

* * *

- Test system: mouse carcinogenicity bioassay, TD50 from CPDB
- protocol-summary: DSSTox (CPDBAS) Carcinogenic Potency Database Summary Mouse Bioassay Results
- test-context: TD50_Mouse_Note: TD50 is harmonic mean of more than one positive test; TargetSites_Mouse_Female: hematopoietic system; liver
endpoint: Potency

The measured Potency associated with Nc1ccc2c(c1)C(=O)c1ccccc1C2=O reads 5.33 mmol/kg/day

* * *

- System: mouse carcinogenicity bioassay, TD50 from CPDB
- protocol-summary: DSSTox (CPDBAS) Carcinogenic Potency Database Summary Mouse Bioassay Results
- test-context: TargetSites_Mouse_Female: liver; lung; stomach
endpoint: Potency

The measured Potency associated with CCCN(CCC)c1c([N+](=O)[O-])cc(C(F)(F)F)cc1[N+](=O)[O-] reads 0.984 mmol/kg/day

* * *

Potency overview
- Tested on: mouse carcinogenicity bioassay, TD50 from CPDB
- protocol-summary: DSSTox (CPDBAS) Carcinogenic Potency Database Summary Mouse Bioassay Results
- test-context: TD50_Mouse_Note: TD50 is harmonic mean of more than one positive test; TargetSites_Mouse_Female: small intestine
- Description: The Carcinogenic Potency Database (CPDB) is a unique and widely used international resource of the results of over 6500 chronic, long-term animal cancer tests on over 1500 chemical substances. The CPDB provides easy access to the bioassay literature, with qualitative and quantitative analyses of both positive and negative experiments that have been published over the past 50 years in the general literature and by the National Cancer Institute/National Toxicology Program. […]

// returns Potency for O=C1C2CC=CCC2C(=O)N1SC(Cl)(Cl)Cl (configuration not stated) with mouse carcinogenicity bioassay, TD50 from CPDB; value = 7.02 mmol/kg/day

Then this compound:
// returns Potency for O=C1c2ccccc2C(=O)N1SC(Cl)(Cl)Cl with mouse carcinogenicity bioassay, TD50 from CPDB; value = 5.23 mmol/kg/day

* * *

- Tested on: mouse carcinogenicity bioassay, TD50 from CPDB
- protocol-summary: DSSTox (CPDBAS) Carcinogenic Potency Database Summary Mouse Bioassay Results
- test-context: TD50_Mouse_Note: no positive results; TargetSites_Mouse_Female: no positive results
Active and inactive are the calls of the source.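 The calls were made as follows: active = a tumour-causing dose and a tumour site recorded for mice in at least one sex group; inconclusive = only government mouse studies exist and were judged inadequate; inactive = mouse studies exist but none gave tumours.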
endpoint: outcome

The measured outcome associated with C/C=C\c1ccc(OC)cc1 reads inactive

The measured outcome associated with ClCOCCCCCCOCCl reads inactive

* * *

Potency overview
- Tested on: mouse carcinogenicity bioassay, TD50 from CPDB
- protocol-summary: DSSTox (CPDBAS) Carcinogenic Potency Database Summary Mouse Bioassay Results
- test-context: TargetSites_Mouse_Female: no positive results

Some solved cases for reference:
// returns Potency for CCCC(Cl)CCC(Cl)CCC(Cl)CCC(Cl)CCC(Cl)CCC(Cl)CCC(C)Cl (stereo not drawn) with mouse carcinogenicity bioassay, TD50 from CPDB; value = 11.6 mmol/kg/day

// returns Potency for [O-][Br+2]([O-])O with mouse carcinogenicity bioassay, TD50 from CPDB; value = 0.322 mmol/kg/day

// returns Potency for Oc1ccc(Cl)cc1Cc1ccccc1 with mouse carcinogenicity bioassay, TD50 from CPDB; value = 6.17 mmol/kg/day

// returns Potency for O=C1c2ccccc2-c2ccc3c4c(ccc1c24)-c1ccccc1C3=O with mouse carcinogenicity bioassay, TD50 from CPDB; value = 32.8 mmol/kg/day

// returns Potency for O=CCCl with mouse carcinogenicity bioassay, TD50 from CPDB; value = 0.46 mmol/kg/day

New cases:
// returns Potency for CCNC(=O)Nc1ncc([N+](=O)[O-])s1 with mouse carcinogenicity bioassay, TD50 from CPDB; value = 3.51 mmol/kg/day

// returns Potency for CCCCCC(N)=O with mouse carcinogenicity bioassay, TD50 from CPDB; value = 16.9 mmol/kg/day

// returns Potency for CC(=O)OC[C@]12C[C@H](OC(=O)CC(C)C)C(C)=C[C@H]1O[C@@H]1[C@H](O)[C@@H](OC(C)=O)[C@@]2(C)C12CO2 (stereo partly drawn) with mouse carcinogenicity bioassay, TD50 from CPDB; value = 0.00189 mmol/kg/day

* * *

Potency overview
- Tested on: mouse carcinogenicity bioassay, TD50 from CPDB
- protocol-summary: DSSTox (CPDBAS) Carcinogenic Potency Database Summary Mouse Bioassay Results
- test-context: TD50_Mouse_Note: TD50 is harmonic mean of more than one positive test; greater than ten-fold variation among TD50 values for positive res; TargetSites_Mouse_Female: urinary bladder

The measured Potency associated with CCOc1ccc(NC(C)=O)cc1 reads 11.9 mmol/kg/day

The measured Potency associated with O=c1cc[nH]c(=O)[nH]1 reads 24.5 mmol/kg/day

* * *

- Tested on: mouse carcinogenicity bioassay, TD50 from CPDB
- protocol-summary: DSSTox (CPDBAS) Carcinogenic Potency Database Summary Mouse Bioassay Results
- test-context: TD50_Mouse_Note: positive test results only by intraperitoneal or intravenous injection; TargetSites_Mouse_Female: peritoneal cavity
Potency overview

Some solved cases for reference:
The measured Potency associated with ClCOCCOCCl reads 0.0291 mmol/kg/day

The measured Potency associated with ClC/C=C/CCl reads 0.0122 mmol/kg/day

The measured Potency associated with ClCOCC(COCCl)OCCl reads 0.0145 mmol/kg/day

The measured Potency associated with ClCOCc1ccc(COCCl)cc1 reads 0.0132 mmol/kg/day

Then this molecule:
The measured Potency associated with CN(C)C(=O)Cl reads 0.0499 mmol/kg/day

* * *

- System: mouse carcinogenicity bioassay, TD50 from CPDB
- protocol-summary: DSSTox (CPDBAS) Carcinogenic Potency Database Summary Mouse Bioassay Results
- test-context: TD50_Mouse_Note: positive test results only by intraperitoneal or intravenous injection; TD50 is harmonic mean of more than one positive; TargetSites_Mouse_Female: hematopoietic system; lung; nervous system; uterus
endpoint: Potency

// returns Potency for CNNCc1ccc(C(=O)NC(C)C)cc1 with mouse carcinogenicity bioassay, TD50 from CPDB; value = 0.00216 mmol/kg/day

* * *

- Test system: mouse carcinogenicity bioassay, TD50 from CPDB
- protocol-summary: DSSTox (CPDBAS) Carcinogenic Potency Database Summary Mouse Bioassay Results
- test-context: TD50_Mouse_Note: TD50 is harmonic mean of more than one positive test; TargetSites_Mouse_Female: harderian gland; kidney
endpoint: Potency

The measured Potency associated with ClC#CCl reads 0.00605 mmol/kg/day

* * *

- Tested on: mouse carcinogenicity bioassay, TD50 from CPDB
- protocol-summary: DSSTox (CPDBAS) Carcinogenic Potency Database Summary Mouse Bioassay Results
- test-context: TargetSites_Mouse_Female: hematopoietic system
endpoint: Potency

Some solved cases for reference:
The measured Potency associated with NNc1nc(-c2ccc(N)cc2)cs1 reads 0.0548 mmol/kg/day

The measured Potency associated with C=CCOC(=O)CC(C)C reads 0.442 mmol/kg/day

The measured Potency associated with NNc1nc(-c2ccc([N+](=O)[O-])cc2)cs1 reads 0.0449 mmol/kg/day

Then this molecule:
The measured Potency associated with Nc1nc(-c2ccc([N+](=O)[O-])cc2)cs1 reads 0.045 mmol/kg/day

* * *

- Test system: mouse carcinogenicity bioassay, TD50 from CPDB
- protocol-summary: DSSTox (CPDBAS) Carcinogenic Potency Database Summary Mouse Bioassay Results
- test-context: TD50_Mouse_Note: TD50 is harmonic mean of more than one positive test; greater than ten-fold variation among TD50 values for positive res; TargetSites_Mouse_Female: hematopoietic system; liver; lung
endpoint: Potency

The measured Potency associated with Clc1ccc(C(c2ccc(Cl)cc2)C(Cl)(Cl)Cl)cc1 reads 0.0361 mmol/kg/day

* * *

Potency overview
- Tested on: mouse carcinogenicity bioassay, TD50 from CPDB
- protocol-summary: DSSTox (CPDBAS) Carcinogenic Potency Database Summary Mouse Bioassay Results
- test-context: TD50_Mouse_Note: TD50 is harmonic mean of more than one positive test; TargetSites_Mouse_Female: urinary bladder

The measured Potency associated with COc1ccccc1N reads 6.05 mmol/kg/day

New cases:
The measured Potency associated with CCS(=O)(=O)c1ccc(S(N)(=O)=O)c2ccccc12 reads 0.0705 mmol/kg/day

* * *

- Tested on: mouse carcinogenicity bioassay, TD50 from CPDB
- protocol-summary: DSSTox (CPDBAS) Carcinogenic Potency Database Summary Mouse Bioassay Results
- test-context: TargetSites_Mouse_Female: no positive results - CPDB evaluation based on NCI Technical Report
endpoint: Potency

The measured Potency associated with COP(=O)(OC)O/C(=C\Cl)c1cc(Cl)c(Cl)cc1Cl reads 0.623 mmol/kg/day

* * *

- Tested on: mouse carcinogenicity bioassay, TD50 from CPDB
- protocol-summary: DSSTox (CPDBAS) Carcinogenic Potency Database Summary Mouse Bioassay Results
- test-context: TD50_Mouse_Note: TD50 is harmonic mean of more than one positive test; TargetSites_Mouse_Female: harderian gland; liver; thyroid gland
endpoint: Potency

The measured Potency associated with Nc1ccc(Oc2ccc(N)cc2)cc1 reads 0.168 mmol/kg/day
